B1: ETS1 (parent)
chain: FSEPSFITESYQTLHPISSEELLS

# Variants of: B1
# TEST_METHOD_NOTES: protein stability index of a GFP-peptide fusion (GPS, HEK-293T) (PSI 1-6); higher = more stable;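 further: lentivirally expressed fusions sorted by FACS into six bins by GFP to DsRed ratio, PSI derived from sequencing read proportions per bin multiplied by bin number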
# EXPERIMENTAL_CONDITIONS: c terminus: a fixed tail appended

- VARIANT_DESIGNATION: "S10R"
  protein stability index: 2.16
- VARIANT_DESIGNATION: "I17Y"
  protein stability index: 2.03
- VARIANT_DESIGNATION: "F1W"
  protein stability index: 3.67
- VARIANT_DESIGNATION: "T13S"
  protein stability index: 2.35
- VARIANT_DESIGNATION: "I7C"
  protein stability index: 2.03
- VARIANT_DESIGNATION: "P4N"
  protein stability index: 2.99
- VARIANT_DESIGNATION: "S19W"
  protein stability index: 2
- VARIANT_DESIGNATION: "T13Y"
  protein stability index: 1.93
- VARIANT_DESIGNATION: "S10M"
  protein stability index: 2.02
- VARIANT_DESIGNATION: "T8N"
  protein stability index: 2.91
